Each recorded value in this set is attributed to paper PMC3090270.

Assay Target: Bovine full-length RIα C37A (bovine)
Assay Name: fluorescence polarisation
Measured Quantity: Kd (nM)
Numbers only, in nM.

What does the data say about its Kd? Entry: VQGNTDEAQEELAWKIAKMIVSDVMQQC (fluorescin-5-maleimide or tetramethylrhodamine-5-maleimide on the Cys that replaces the last residue) [D-AKAP2 AKB peptide (residues 623-650), last residue changed to Cys, fluorescently labeled]
745
